Reference source: PubChem BioAssay (NCI)

Test system: A549 NSCLC
Assay: NCI tumour cell line growth inhibition, 48 h
Each entry below lists one item and its recorded TGI value.
experimental-endpoint: TGI

# compound, experimental-endpoint, value-reported
records = [
    ("CN(C)CCNC(=O)c1cc(-c2nccn2C)nc2ccccc12", "TGI", "> 100 µM"),
    ("O=C(/C=C(\\O)c1ccc(Cl)cc1)C(=O)NN=C(c1ccccc1)c1ccccc1", "TGI", "> 100 µM"),
    ("COc1cc(-c2oc3c(OC)c(O)c(OC)c(O)c3c(=O)c2OC)ccc1O", "TGI", "> 100 µM"),
    ("COCCNC(=O)c1ccc(-c2nc3ccc4[nH]ncc4c3c3c2CCCC3)cc1", "TGI", "> 100 µM"),
    ("CCOC1C=CCCO1 (stereo unspecified)", "TGI", "> 100 µM"),
    ("C=C(C)[C@H](O)C(O)CC(C)[C@@H]1CCC23CC12CCC1[C@@]2(C)CCC(OC(C)=O)C(C)(C)C2CC(OC2OC(COC(C)=O)C(O)C(O)C2O)[C@]13C (stereo partly specified)", "TGI", "12.2 µM"),
]

* * *

Tested on: K-562 leukemia
Assay: NCI tumour cell line growth inhibition, 48 h

# compound, TGI
measured = [
    ("CC(=O)N1C2=CCCC2(C)c2ccccc21 (centres undefined)", "> 100 µM"),
    ("COc1ccc(/C=C/C(=O)c2cc3c(N)c(C(=O)Nc4ccccc4)sc3nc2C)cc1", "> 50 µM"),
    ("CCN(CC)c1cccc2c1C1(O)CCC3(CC21)OCCCCO3 (centres undefined)", "> 100 µM"),
    ("CN(C)/C=C/c1ccncc1", "> 100 µM"),
    ("COc1ccccc1/C=N/N=C(\\N)NO", "> 100 µM"),
    ("Nc1cccc(C#Cc2cccc(C#Cc3cccc(N)n3)n2)n1", "> 100 µM"),
    ("COc1ccc(CCc2ccccc2CC(=O)O)cc1", "> 100 µM"),
    ("C=CC(=O)Nc1cccc(C)c1Nc1ncc2cc(-c3c(Cl)c(OC)cc(OC)c3Cl)ccc2n1", "> 100 µM"),
    ("CC(C)(C)[Si](C)(C)OCC#C[C@@]1(O)CCCCC1CC(Sc1ccccc1)Sc1ccccc1 (some centres undefined)", "> 100 µM"),
    ("Oc1c(N=Nc2ccccc2)c2ccccc2c2ccc3ccccc3c12", "> 100 µM"),
    ("CS(=O)(=O)Nc1cc(-c2ccc3ncnc(Nc4ccc5c(cnn5Cc5ccccc5F)c4)c3c2)cnc1Cl", "> 100 µM"),
    ("O=C(NCP(=O)(O)O)c1cccnc1", "> 100 µM"),
    ("N/C(COc1ccc(Cl)cc1)=N\\NC(=O)c1ccncc1", "> 100 µM"),
    ("CC(C)(c1ccc(OC#N)cc1)c1ccc(OC#N)cc1", "> 100 µM"),
    ("CC[N+]1(C)CCC(O)(/C=C/c2ccc(Cl)cc2)C(C(=O)/C=C/c2ccc(Cl)cc2)C1 (centres undefined)", "5.71 µM"),
    ("COC(=O)C(CC(=O)Nc1ccc(Cl)c(Cl)c1)C(=O)C(=O)NC1C2CC3CC(C2)CC1C3 (centres undefined)", "> 100 µM"),
    ("Cc1ccc(/C(O)=C/c2nc3ccccc3[nH]c2=O)c(C)c1", "> 100 µM"),
    ("COc1ccc2nc3ccc(OC)cc3c(SCC3CO3)c2c1 (centres undefined)", "54.1 µM"),
    ("CCCCCCCCCCCC[n+]1ccc(C(N)=O)cc1", "> 100 µM"),
    ("COc1cc(C2c3cc4c(cc3OC(NCc3ccccc3)C2C)OCO4)cc(OC)c1OC (centres undefined)", "> 37.8 µM"),
    ("COc1cc(C2(O)c3ccccc3C3=NCCN32)cc(OC)c1OC (centres undefined)", "> 100 µM"),
    ("CCCCCCCCNC(=S)/N=C/c1c(O)c2ccccc2oc1=O", "40.1 µM"),
    ("COC(=O)[C@@H](C)C[C@H](Cc1ccccc1)NC(=O)c1csc([C@@H](C[C@H](C(C)C)N(C)C(=O)C2(NC(=O)[C@H]3CCCCN3C)CC2)OC(C)=O)n1", "> 33.3 µM"),
    ("CC(=O)c1c[nH]cc1CO", "> 10 µM"),
]

* * *

Tested on: MDA-MB-231 breast
Assay: NCI tumour cell line growth inhibition, 48 h
experimental-endpoint: TGI

# compound, value-reported
records = [
    ("CC(C)C[C@@H]1NC(=O)[C@@H]2CCCN2C(=O)[C@@H]2CCCN2C(=O)[C@H](CC(C)C)NC(=O)[C@H](CO)NC(=O)[C@H](CCCCN)NC(=O)[C@H]([C@H](C)O)NC(=O)[C@@H]2CCCC[C@@H](NC1=O)C(=O)N[C@@H](Cc1ccccc1)C(=O)N1CCC[C@H]1C(=O)N[C@@H](CC(=O)O)C(=O)NCC(=O)N[C@@H](CCCN=C(N)N)C(=O)N2", "> 50 µM"),
    ("Cc1nn(C(=O)Cc2ccccc2)c2c1C(c1ccccc1[N+](=O)[O-])SC(N)=N2 (stereo unspecified)", "> 100 µM"),
    ("CCOC(=O)C1=NN(c2ccccc2)C2=CC(C)=NN(C)C(=S)N21", "> 100 µM"),
    ("CCOC(=O)C(=CNC(=S)Nc1c(CC)cccc1CC)C(=O)OCC", "> 100 µM"),
    ("Cc1ccc(/C(O)=C/c2nc3ccccc3[nH]c2=O)c(C)c1", "> 46.6 µM"),
    ("CC1=NN(C(=O)c2ccccc2O)C(c2ccccc2Cl)C1C(=O)Nc1ccccc1 (stereo unspecified)", "> 100 µM"),
    ("O=C(CN1CCOCC1)Nc1ccc2c(c1)C1Oc3ccccc3CC1CO2 (stereo unspecified)", "> 100 µM"),
    ("COc1cc(C2(O)c3ccccc3C3=NCCN32)cc(OC)c1OC (stereo unspecified)", "> 100 µM"),
    ("Nc1cccc(C#Cc2cccc(C#Cc3cccc(N)n3)n2)n1", "> 100 µM"),
    ("CC(C)CCCC(C)[C@H]1CC[C@H]2[C@@H]3CC[C@H]4C[C@@H](CCC=C(c5cc(Cl)c(O)c(C(=O)O)c5)c5cc(Cl)c(O)c(C(=O)O)c5)CC[C@]4(C)[C@H]3CC[C@]12C (stereo partly specified) (tested in a mixture with another compound)", "> 50 µM"),
    ("COc1ccc([C@H](NC(=O)c2ccccc2)[C@@H](O)C(=O)O[C@H]2C[C@@]3(O)C(OC(=O)c4ccccc4)C4[C@](C)(C(=O)[C@H](OC(C)=O)C(=C2C)C3(C)C)[C@@H](O)C[C@H]2OC[C@@]42OC(C)=O)cc1 (stereo partly specified)", "> 10 µM"),
    ("O=[N+]([O-])c1ccc(NC(=S)Nc2ccccn2)cc1", "> 100 µM"),
    ("O=C(n1c(=O)n(-c2ccc(Cl)cc2)c(=O)n1C(=O)C(Cl)(Cl)Cl)C(Cl)(Cl)Cl", "> 100 µM"),
    ("Fc1ccc(Nc2nnc(-c3ccccn3)s2)cc1", "> 100 µM"),
    ("C/C=C/C=C\\C1OC(O)([C@H](CC)C(=O)NC/C=C/C=C(\\C)[C@H](OC)C(C)C2OC(\\C=C/C=C/C=C(\\C)C(=O)c3c(O)ccn(C)c3=O)[C@H](O)[C@@H]2O)C(O)C(O)C1(C)C (stereo partly specified)", "> 100 µM"),
    ("COCCNC(=O)c1ccc(-c2nc3ccc4[nH]ncc4c3c3c2CCCC3)cc1", "73 µM"),
    ("CN(C)CCCNc1ccc2nnn3c4ccc(OC(=O)c5ccc([N+](=O)[O-])cc5)cc4c(=O)c1c23", "23.3 µM"),
    ("O=C1C(=O)c2ccccc2C(O)=C1CCCCCCCCC1CCCCC1", "17.3 µM"),
    ("O=[N+]([O-])/C=C/COCc1cc2c(cc1Br)OCO2", "33 µM"),
    ("O=C1CCc2cc3c(cc21)CC1(Cc2cc4c(cc2C1)CCCC4)C3", "> 100 µM"),
    ("O=C(CCCCCCC(=O)Nc1ccc2c(c1)/C(=C/c1ccc[nH]1)C(=O)N2)NO", "10 µM"),
]

* * *

Tested on: SN12C renal
Experiment: NCI tumour cell line growth inhibition, 48 h
Recorded TGI by entry
experimental-endpoint: TGI

# compound, value-reported
measured = [
    ("N/C(COc1ccc(Cl)cc1)=N\\NC(=O)c1ccncc1", "> 100 µM"),
    ("O=C1C(=C(C(=O)c2ccccc2)C(=O)c2ccccc2)OC(c2ccccc2)=C1C(=O)c1ccccc1", "19.2 µM"),
    ("COc1cc(/C=C2\\CC3C4CC[C@H]5C[C@@H](O)CC[C@]5(C)C4CC[C@]3(C)C2=O)cc(OC)c1OC (some centres undefined)", "95.3 µM"),
    ("CC(C)CCc1c(Cl)nc(Cl)nc1Cl", "57.9 µM"),
    ("CC[N+]1(C)CCC(O)(/C=C/c2ccc(Cl)cc2)C(C(=O)/C=C/c2ccc(Cl)cc2)C1 (centres undefined)", "27.1 µM"),
    ("CCOC(=O)/C=C/c1c[nH]c(C(=O)OCC)c1", "> 100 µM"),
    ("CC1=NN(C(=O)c2ccc(Cl)cc2)C(=O)/C1=C/c1ccc(O)cc1", "> 100 µM"),
    ("COC(=O)/C(=C\\c1cn(C(C)=O)c2ccccc12)P(=O)(OC)OC", "28 µM"),
    ("CS(=O)(=O)Nc1cc(-c2ccc3ncnc(Nc4ccc5c(cnn5Cc5ccccc5F)c4)c3c2)cnc1Cl", "> 100 µM"),
    ("Cc1ccc(S(=O)(=O)c2c3[nH]c4ccccc4nc3n3c2nc2ccccc23)cc1", "> 100 µM"),
    ("CCOC(=O)c1nc2ccccc2nc1Oc1ccc(OC)cc1", "> 100 µM"),
    ("O=C(/C=C1/NC(=O)CS1)Nc1ccccc1", "> 100 µM"),
    ("O=C(CN1C(=O)c2ccccc2C1=O)C(O)CN1C(=O)c2ccccc2C1=O (centres undefined)", "> 100 µM"),
    ("C/C=C/C=C\\C1OC(O)([C@H](CC)C(=O)NC/C=C/C=C(\\C)[C@H](OC)C(C)C2OC(\\C=C/C=C/C=C(\\C)C(=O)c3c(O)ccn(C)c3=O)[C@H](O)[C@@H]2O)C(O)C(O)C1(C)C (some centres undefined)", "> 100 µM"),
    ("CC(=O)c1c[nH]cc1CO", "> 10 µM"),
    ("COCCNC(=O)c1ccc(-c2nc3ccc4[nH]ncc4c3c3c2CCCC3)cc1", "91.7 µM"),
    ("COc1ccc(/C(C)=N/NC(=O)c2ccncc2)cc1OC", "> 10 µM"),
    ("NS(=O)(=O)c1nnc(/N=C(/CCC(=O)O)C(=O)O)s1", "> 100 µM"),
    ("Cc1ccc(C2=C(c3ccccc3)C(Br)(c3ccccc3)C(c3ccccc3)=C2c2ccc(C)cc2)cc1", "> 100 µM"),
]
